Tested on: Klebsiella pneumoniae
Assay: Antibacterial activity against Klebsiella pneumoniae ATCC 13883 after 6 to 8 hrs
Assay type: functional, organism-based
Calls of active or inactive are those of the source. No rule for the calls is given here.
PARAMETER: Activity

Some solved cases for reference:
# SMILES_DATA, Activity
rows = [
    ("O=S(=O)(Nc1ccc(-c2nc3cc(NS(=O)(=O)c4cccs4)ccc3o2)cc1)c1cccs1", "inactive"),
    ("Cc1ccc(S(=O)(=O)Nc2ccc(-c3nc4cc(NS(=O)(=O)c5ccc(C)cc5)ccc4o3)cc2)cc1", "inactive"),
    ("Cc1ccc(S(=O)(=O)Nc2ccc(-c3nc4ccc(NS(=O)(=O)c5ccc(C)cc5)cc4[nH]3)cc2)cc1", "inactive"),
    ("O=[N+]([O-])c1ccccc1S(=O)(=O)Nc1ccc(-c2nc3cc(NS(=O)(=O)c4ccccc4[N+](=O)[O-])ccc3o2)cc1", "inactive"),
    ("O=c1ccc2cc(S(=O)(=O)Nc3ccc(-c4nc5cc(NS(=O)(=O)c6ccc7oc(=O)ccc7c6)ccc5o4)cc3)ccc2o1", "inactive"),
    ("O=S(=O)(Nc1ccc(-c2nc3cc(NS(=O)(=O)c4cccc(O)c4)ccc3o2)cc1)c1cccc(O)c1", "inactive"),
    ("O=S(=O)(Nc1ccc(-c2nc3cc(NS(=O)(=O)c4ccccc4)ccc3o2)cc1)c1ccccc1", "inactive"),
    ("COC(=O)c1cccc(S(=O)(=O)Nc2ccc(-c3nc4cc(NS(=O)(=O)c5cccc(C(=O)OC)c5)ccc4o3)cc2)c1", "inactive"),
]

INPUT: Item under review: "N#Cc1ccc(S(=O)(=O)Nc2ccc(-c3nc4cc(NS(=O)(=O)c5ccc(C#N)cc5)ccc4o3)cc2)cc1" . Reported Activity?
OUTPUT: inactive

----------
Tested on: Enterobacter cloacae
Test: Antibacterial activity against Enterobacter cloacae subsp. cloacae ATCC 13047 after 6 to 8 hrs
Assay type: functional, organism-based
Activity calls are given as the source filed them. No rule for the calls is given here.
Output constraint: value belongs to YES for active, NO for inactive

Before answering, review these 5 worked examples.
# SMILES_DATA, TEST_TARGET, CLASS_ASSIGNMENT
data = [
    ("COC(=O)c1ccccc1S(=O)(=O)Nc1ccc(-c2nc3cc(NS(=O)(=O)c4ccccc4C(=O)OC)ccc3o2)cc1", "Enterobacter cloacae", "NO"),
    ("O=S(=O)(Nc1ccc(-c2nc3cc(NS(=O)(=O)c4ccccc4C(F)(F)F)ccc3o2)cc1)c1ccccc1C(F)(F)F", "Enterobacter cloacae", "NO"),
    ("O=S(=O)(Nc1ccc(-c2nc3cc(NS(=O)(=O)c4ccc(O)cc4)ccc3o2)cc1)c1ccc(O)cc1", "Enterobacter cloacae", "YES"),
    ("COc1ccc(S(=O)(=O)Nc2ccc(-c3nc4cc(NS(=O)(=O)c5ccc(OC)cc5)ccc4o3)cc2)cc1", "Enterobacter cloacae", "NO"),
    ("O=S(=O)(Nc1ccc(-c2nc3cc(NS(=O)(=O)c4cccc(Cl)c4)ccc3o2)cc1)c1cccc(Cl)c1", "Enterobacter cloacae", "NO"),
]

INPUT: Any idea what this test logged for "COc1ccccc1S(=O)(=O)Nc1ccc(-c2nc3cc(NS(=O)(=O)c4ccccc4OC)ccc3o2)cc1" ?
OUTPUT: NO

INPUT: Would you mind doing "O=S(=O)(Cc1ccccc1)Nc1ccc(-c2nc3cc(NS(=O)(=O)Cc4ccccc4)ccc3o2)cc1" as well?
OUTPUT: NO

INPUT: Would you mind doing "O=S(=O)(Nc1ccc(-c2nc3cc(NS(=O)(=O)c4ccccc4O)ccc3o2)cc1)c1ccccc1O" as well?
OUTPUT: NO

INPUT: Would you mind doing "Cc1ccc(S(=O)(=O)Nc2ccc(-c3nc4ccc(NS(=O)(=O)c5ccc(C)cc5)cc4[nH]3)cc2)cc1" as well?
OUTPUT: NO

INPUT: Would you mind doing "O=C(O)c1ccccc1S(=O)(=O)Nc1ccc(-c2nc3cc(NS(=O)(=O)c4ccccc4C(=O)O)ccc3o2)cc1" as well?
OUTPUT: NO

----------
Target: E. coli GroEL/ES (Escherichia coli, UniProt P0A6F5)
Sequence (P0A6F5 whole entry, looked up): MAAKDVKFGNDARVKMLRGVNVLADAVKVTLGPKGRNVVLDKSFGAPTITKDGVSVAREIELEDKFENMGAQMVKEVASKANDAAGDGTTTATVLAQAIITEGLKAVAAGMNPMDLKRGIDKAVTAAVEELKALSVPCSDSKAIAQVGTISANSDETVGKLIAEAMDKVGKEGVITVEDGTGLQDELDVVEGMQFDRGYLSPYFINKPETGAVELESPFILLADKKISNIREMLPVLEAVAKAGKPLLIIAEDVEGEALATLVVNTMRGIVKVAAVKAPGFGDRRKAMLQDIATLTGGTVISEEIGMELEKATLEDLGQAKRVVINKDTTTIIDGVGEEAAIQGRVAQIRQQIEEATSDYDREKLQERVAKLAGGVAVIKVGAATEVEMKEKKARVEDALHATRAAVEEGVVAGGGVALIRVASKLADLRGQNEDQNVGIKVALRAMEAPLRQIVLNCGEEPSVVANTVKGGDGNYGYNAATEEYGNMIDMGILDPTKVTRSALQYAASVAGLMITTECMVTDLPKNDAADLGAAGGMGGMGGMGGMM
Experiment: Inhibition of Escherichia coli GroEL expressed in Escherichia coliDH5alpha/Escherichia coli GroES expressed in Escherichia coli BL21 (DE3) assessed as reduction in GroEL/GroES-mediated denatured MDH refolding by measuring MDH enzyme activity using sodium mesoxalate as substrate after 20 to 40 mins by spectrometric analysis
Field: IC50. Provide a value for each of the compounds that follow.
Answers are plain numbers, in µM.

Some solved cases for reference:
# SMILES_DATA, PARAMETER, UNIT, NUMERIC_VALUE
data = [
    ("NCc1ccc(S(=O)(=O)Nc2ccc3oc(-c4ccc(NS(=O)(=O)c5ccc(Cl)s5)cc4)nc3c2)cc1", "IC50", "µM", 3.1),
    ("O=S(=O)(Nc1ccc2oc(-c3ccc(NS(=O)(=O)c4ccc(Cl)s4)cc3)nc2c1)c1ccc(Cl)c(Cl)c1", "IC50", "µM", 5.1),
    ("O=[N+]([O-])c1cc(S(=O)(=O)Nc2ccc(-c3nc4cc(NS(=O)(=O)c5ccc(Cl)s5)ccc4o3)cc2)ccc1Cl", "IC50", "µM", 1.5),
]

# return IC50 for each item in the list
1. NCc1ccc(S(=O)(=O)Nc2ccc(-c3nc4cc(NS(=O)(=O)c5ccc(Cl)s5)ccc4o3)cc2)cc1
2. O=S(=O)(Nc1ccc2oc(-c3ccc(NS(=O)(=O)c4ccc(Cl)s4)cc3)nc2c1)c1cccc(C(F)(F)F)c1

OUTPUT:
1.3
6.7

----------
Assay: Cytotoxicity against human THLE3 cells after 48 hrs by Alamar blue assay
Type: cell-based
Assign labels as follows, please: true (1) for CC50 at 48 h below 50 µM; false (0) for CC50 at 48 h equal to or exceeding 50 µM.

Before answering, review these 2 worked examples.
# SMILES_DATA, CLASS_ASSIGNMENT
data = [
    ("O=S(=O)(Nc1ccc2oc(-c3ccc(NS(=O)(=O)c4ccc(Cl)s4)cc3)nc2c1)c1cccc(C(F)(F)F)c1", "true (1)"),
    ("O=S(=O)(Nc1ccc2oc(-c3ccc(NS(=O)(=O)c4ccc(Cl)s4)cc3)nc2c1)c1ccc(Cl)c(Cl)c1", "true (1)"),
]

INPUT: CC50 at 48 h under 50 µM? Item: "O=S(=O)(Nc1ccc2oc(-c3ccc(NS(=O)(=O)c4cccc5nonc45)cc3)nc2c1)c1ccc(Cl)s1"
OUTPUT: false (0)

INPUT: Would you mind doing "O=[N+]([O-])c1cc(S(=O)(=O)Nc2ccc(-c3nc4cc(NS(=O)(=O)c5ccc(Cl)s5)ccc4o3)cc2)ccc1Cl" as well?
OUTPUT: true (1)

----------
Assay: Binding affinity to Escherichia coli GroEL expressed in Escherichia coli DH5alpha by ITC assay
PARAMETER: Kd (nM)
Answers are plain numbers, in nM.

# SMILES_DATA, Kd (nM)
records = [
    ("NCc1ccc(S(=O)(=O)Nc2ccc(-c3nc4cc(NS(=O)(=O)c5ccc(Cl)s5)ccc4o3)cc2)cc1", 36),
]

Now look at this one.
INPUT: Item under review: "NCc1ccc(S(=O)(=O)Nc2ccc3oc(-c4ccc(NS(=O)(=O)c5ccc(Cl)s5)cc4)nc3c2)cc1" . Reported Kd?
OUTPUT: 150

----------
HSP60/HSP10 (Homo sapiens, UniProt P10809): reported IC50 for various compounds.
Sequence (P10809 whole entry): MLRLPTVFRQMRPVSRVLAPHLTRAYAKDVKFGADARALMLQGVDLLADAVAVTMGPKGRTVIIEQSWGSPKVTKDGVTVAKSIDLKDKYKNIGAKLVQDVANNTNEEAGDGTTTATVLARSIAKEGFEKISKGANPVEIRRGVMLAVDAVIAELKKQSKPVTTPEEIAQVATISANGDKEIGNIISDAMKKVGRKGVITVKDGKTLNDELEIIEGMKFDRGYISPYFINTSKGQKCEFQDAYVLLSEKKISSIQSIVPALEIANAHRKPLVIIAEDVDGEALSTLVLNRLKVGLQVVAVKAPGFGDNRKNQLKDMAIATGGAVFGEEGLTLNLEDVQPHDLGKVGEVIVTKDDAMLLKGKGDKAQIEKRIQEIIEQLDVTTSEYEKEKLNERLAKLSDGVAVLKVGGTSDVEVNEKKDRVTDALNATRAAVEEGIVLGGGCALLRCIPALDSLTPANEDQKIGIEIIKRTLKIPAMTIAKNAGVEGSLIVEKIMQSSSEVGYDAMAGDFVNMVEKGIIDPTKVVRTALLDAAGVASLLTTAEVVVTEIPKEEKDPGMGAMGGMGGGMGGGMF
Sequence (P61604 whole entry, further chain): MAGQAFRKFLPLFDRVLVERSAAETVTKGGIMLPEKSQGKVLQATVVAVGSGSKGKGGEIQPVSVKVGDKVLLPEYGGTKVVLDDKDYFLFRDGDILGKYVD
Numbers only, in µM.

# SMILES_DATA, UNIT, IC50
records = [
    ("O=S(=O)(Nc1ccc2oc(-c3ccc(NS(=O)(=O)c4ccc(Cl)s4)cc3)nc2c1)c1ccc(Cl)c(Cl)c1", "µM", 4.7),
    ("O=S(=O)(Nc1ccc(-c2nc3cc(NS(=O)(=O)c4ccc(Cl)s4)ccc3o2)cc1)c1ccc(Cl)c(C(F)(F)F)c1", "µM", 6.1),
]

INPUT: Item under review: "O=S(=O)(Nc1ccc2oc(-c3ccc(NS(=O)(=O)c4ccc(Cl)s4)cc3)nc2c1)c1ccc(Cl)c(C(F)(F)F)c1" . Reported IC50?
OUTPUT: 2.4

----------
Target: E. coli GroEL/ES (Escherichia coli)
Assay: Inhibition of Escherichia coli GroEL expressed in Escherichia coli DH5alpha/Escherichia coli GroES expressed in Escherichia coli BL21 (DE3) assessed as reduction in GroEL/GroES-mediated denatured rhodanese refolding by measuring rhodanese enzyme activity after 45 mins by spectrometric analysis
PARAMETER: IC50 (nM)
Numbers only, in nM.

Some solved cases for reference:
# SMILES_DATA, TEST_TARGET, UNIT, IC50
records = [
    ("NCc1ccc(S(=O)(=O)Nc2ccc(-c3nc4cc(NS(=O)(=O)c5ccc(Cl)s5)ccc4o3)cc2)cc1", "E. coli GroEL/ES (Escherichia coli)", "nM", 3200),
    ("O=[N+]([O-])c1cc(S(=O)(=O)Nc2ccc3oc(-c4ccc(NS(=O)(=O)c5ccc(Cl)s5)cc4)nc3c2)ccc1Cl", "E. coli GroEL/ES (Escherichia coli)", "nM", 1000),
    ("O=S(=O)(Nc1ccc2oc(-c3ccc(NS(=O)(=O)c4ccc(Cl)s4)cc3)nc2c1)c1ccc(Cl)c(Cl)c1", "E. coli GroEL/ES (Escherichia coli)", "nM", 6400),
]

INPUT: Item under review: "O=[N+]([O-])c1cc(S(=O)(=O)Nc2ccc(-c3nc4cc(NS(=O)(=O)c5ccc(Cl)s5)ccc4o3)cc2)ccc1Cl" . Reported IC50?
OUTPUT: 2000
